I'd be grateful if you could share measured koff for these entries.
# TEST SYSTEM: T1, human PD-1.Fc (human, UniProt Q15116 25-170, limits assumed)
# T1 construct: also called PD-1; Fc protein; PD-1.hFc; not shown: human IgG Fc fragment
# T1 sequence (Q15116 25-170 limits assumed): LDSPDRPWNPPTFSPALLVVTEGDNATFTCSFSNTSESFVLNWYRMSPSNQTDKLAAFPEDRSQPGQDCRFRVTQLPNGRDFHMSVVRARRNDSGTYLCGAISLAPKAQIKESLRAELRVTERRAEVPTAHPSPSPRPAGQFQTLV
# MEASUREMENT PROTOCOL: SPR, antibody captured on protein A, PD-1.Fc in flow
One number for each entry, in s⁻¹.

Please review the following examples before continuing.
BINDER	NUMERIC READOUT
NB147 (Fc fusion, not shown: IgG4 constant region of vector pCDNA3.4-IgG4) heavy: EVQVVESGGGVVQAGDSLRLSCVASGRTFSSVAMGWFRQAPGKEREFVAAISRSGGSAGYSDSVKDRSTISRDNAKNTVYLQMNSLKPEDTAVYFCAASELDFCSTLGCYDYWGQGIQVTFSS	0.000153
NB202 (Fc fusion, not shown: IgG4 constant region of vector pCDNA3.4-IgG4) heavy: EVQVVESGGGLVQAGGSLRLSCTASGDTRLASAMGWYRQAPGKERELVAAITNSGLTYYADSVEGRFTISRDSAKNTVYLQMNSLKPEDTAVYYCNAGAPPPGGLGYDESDYWGQGTQVTVSS	6.77e-05

Could you tell me koff for each of these binders? They are listed below.
1. NB171 (Fc fusion, not shown: IgG4 constant region of vector pCDNA3.4-IgG4) heavy: QVQLVESGGGLVQAGGSLRLSCAASGRTFSSYAMGWFRQALGKEREWIAGVSMSGRTTYYAAPVKDRFTISRDNAKNTVTLQMNSLKPEDTAVYYCAAGRAQAEIPIMRAQEYDSWGQGTQVTVSS
2. NB173 (Fc fusion, not shown: IgG4 constant region of vector pCDNA3.4-IgG4) heavy: QVQLQESGGGLVQAGGSLRLSCAASGRSFNSYAMGWFRQAPGKEREFVAAISQNGGTQGYAEAVKDRFTISRDNTNKVVALQMNSLKPEDTAAYYCAADGDASDISYAPPRDYEYDYWGQGTQVTVSS

Ans:
1: 0.000309; 2: 0.000179

Just for reference, patent EP4269437A1 is where these values come from.
